Target: viral kinase pUL-97 (Human cytomegalovirus, UniProt P16788)
Construct: The pUL-97 gene was cloned into a baculovirus vector; GST (glutathione S-transferase) (N); made in house; host or cells: Sf9 insect cells, baculovirus
Sequence (P16788 whole entry): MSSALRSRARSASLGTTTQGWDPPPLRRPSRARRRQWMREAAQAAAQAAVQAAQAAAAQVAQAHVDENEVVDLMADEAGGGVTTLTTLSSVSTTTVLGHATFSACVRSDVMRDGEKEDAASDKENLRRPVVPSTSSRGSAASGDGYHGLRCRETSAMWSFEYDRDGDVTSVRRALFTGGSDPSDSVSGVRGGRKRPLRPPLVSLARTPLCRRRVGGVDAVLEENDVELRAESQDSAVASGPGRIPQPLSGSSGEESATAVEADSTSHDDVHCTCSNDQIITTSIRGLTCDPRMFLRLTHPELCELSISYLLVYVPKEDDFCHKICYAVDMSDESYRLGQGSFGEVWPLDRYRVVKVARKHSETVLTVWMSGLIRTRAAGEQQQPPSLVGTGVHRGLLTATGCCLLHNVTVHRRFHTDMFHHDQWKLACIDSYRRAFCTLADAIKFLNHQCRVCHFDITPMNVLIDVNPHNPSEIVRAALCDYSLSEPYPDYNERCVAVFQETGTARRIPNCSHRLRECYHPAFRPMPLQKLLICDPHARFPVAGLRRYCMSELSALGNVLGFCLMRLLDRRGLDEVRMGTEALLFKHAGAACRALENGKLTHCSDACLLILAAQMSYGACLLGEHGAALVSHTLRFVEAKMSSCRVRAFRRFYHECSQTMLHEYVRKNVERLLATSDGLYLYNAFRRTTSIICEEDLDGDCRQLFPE
Assay: UL97 kinase assay on Immobilon plate
Assay type: biochemical
Conditions: inhibition of UL 97 kinase activity; class by IC50 / % inhibition at 10 or 100 μM; read-out: Activity Class [A, B, C]
pIC50: −log10 of the molar value.
Endpoint Name: pIC50

In [3]: df
Out[3]:
                              line_notation  experimental_value
0  COc1cc(Nc2cncc(-c3cccc(F)c3)n2)cc(OC)c1OC        5.00 to 6.00
1  FC(F)(F)c1cc(-c2cncc(N3CCN(c4ccncc4)CC3)n2)cc(C(F)(F)F)c1        4.00 to 5.00
2  NC(=O)c1ccc(-c2cncc(N3CCN(c4cccc(Cl)c4)CC3)n2)cc1        5.00 to 6.00
3  COc1ccc2cc(-c3cncc(N4CCN(c5ccccc5OC)CC4)n3)ccc2c1        4.00 to 5.00
4  CC(=O)c1ccc(N2CCN(c3cncc(-c4ccc(C)cc4)n3)CC2)cc1        5.00 to 6.00

List the reported pIC50 of each compound below.
1. c1ccc2cc(-c3cncc(N4CCN(CCN5CCCC5)CC4)n3)ccc2c1
2. COc1cccc(-c2cncc(N3CCN(c4ccncc4)CC3)n2)c1
3. CC(=O)c1cccc(-c2cncc(N3CCN(c4cccc(C(F)(F)F)c4)CC3)n2)c1

1. > 6.00
2. 5.00 to 6.00
3. 4.00 to 5.00

List the reported pIC50 of each compound below.
1. COc1ccc(-c2cncc(N3CCN(c4ccc(F)cc4)CC3)n2)cc1OC
2. Cc1ccc(N2CCN(c3cncc(-c4ccc(N(C)C)cc4)n3)CC2)cc1
3. Fc1cc(-c2cncc(N3CCN(c4ccccc4)CC3)n2)ccc1-c1ccccc1
4. CC(=O)c1ccccc1-c1cncc(N2CCN(c3cccc(C(F)(F)F)c3)CC2)n1
5. COc1cccc(-c2cncc(N3CCN(c4ccc(OC)c(OC)c4)CC3)n2)c1

1: 5.00 to 6.00; 2: 4.00 to 5.00; 3: 4.00 to 5.00; 4: 4.00 to 5.00; 5: 5.00 to 6.00

List the reported pIC50 of each compound below.
1. Fc1ccc(-c2cncc(N3CCN(c4ccncc4)CC3)n2)cc1Cl
2. COc1ccc(N2CCN(c3cncc(-c4ccc(Oc5ccccc5)cc4)n3)CC2)cc1OC
3. FC(F)(F)c1cccc(N2CCN(c3cncc(-c4cc5ccccc5s4)n3)CC2)c1

["> 6.00", "4.00 to 5.00", "5.00 to 6.00"]
